experiment: Oral absorption in ferret; format: ADME, organism-based, Mustela putorius furo; settings: in vivo, read-out: Absorption
endpoint_label: Fa

Exam item: Item CC(C)C[C@H](O)[C@H](O)[C@H](CC1CCCCC1)NC(=O)[C@H](Cc1cscn1)NC(=O)[C@H](Cc1ccccc1)CS(=O)(=O)N1CCN(C)CC1 : provide Fa
Marked response: 32%

###

target: Neutrophil collagenase (Homo sapiens, UniProt P22894); experiment: Inhibition of matrix metalloprotease-8 (MMP-8).
Sequence (P22894 whole entry): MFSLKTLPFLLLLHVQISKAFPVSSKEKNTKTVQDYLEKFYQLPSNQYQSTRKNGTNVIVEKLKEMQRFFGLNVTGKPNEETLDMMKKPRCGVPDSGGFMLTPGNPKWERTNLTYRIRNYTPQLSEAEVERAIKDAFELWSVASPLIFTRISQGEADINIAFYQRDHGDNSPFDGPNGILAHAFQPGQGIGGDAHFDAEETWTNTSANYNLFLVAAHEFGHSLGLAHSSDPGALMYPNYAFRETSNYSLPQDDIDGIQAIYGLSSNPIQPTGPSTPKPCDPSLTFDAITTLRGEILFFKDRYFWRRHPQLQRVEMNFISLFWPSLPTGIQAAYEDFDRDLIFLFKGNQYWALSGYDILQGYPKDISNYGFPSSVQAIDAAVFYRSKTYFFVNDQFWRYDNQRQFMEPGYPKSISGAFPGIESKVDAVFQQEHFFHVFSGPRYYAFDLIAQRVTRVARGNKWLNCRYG
endpoint_label: pKi
Would you please state pKi, meaning minus log10 of the concentration in mol/L, as a bare number?

Exam item: Provide pKi, system Neutrophil collagenase (Homo sapiens, UniProt P22894), entry CN1C(=O)N(C[C@H](C(=O)NO)[C@@H](CC2CCCC2)C(=O)N2CCCCC2)C(=O)C1(C)C
Marked response: 8.40

Sourced from ChEMBL document CHEMBL1133572
